B1: TPR 5TU (parent)
chain: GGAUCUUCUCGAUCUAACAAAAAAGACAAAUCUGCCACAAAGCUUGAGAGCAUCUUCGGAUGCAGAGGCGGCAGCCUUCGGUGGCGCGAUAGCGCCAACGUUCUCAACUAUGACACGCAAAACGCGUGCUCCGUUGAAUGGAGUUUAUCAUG

Variants of: B1
Assay: polymerase ribozyme fitness, log enrichment relative to wild type (log ratio); higher = more active; in vitro selection for triplet polymerase activity
This sample holds only a part of the variants without activity.
Measured Quantity: polymerase ribozyme fitness (log ratio)

>>> reported_result("U4G U31G G50C G68A C75A G86U C95U U101A")
"≤ -4.2"
>>> reported_result("A17G A23U U55G A66C")
"≤ -4.2"
>>> reported_result("C38G C43U G81U G86U A98G C103G A150G U151C")
"≤ -4.2"
>>> reported_result("U15G C54U A60U C75G A113G")
"≤ -4.2"
>>> reported_result("G92C U135G A142U")
-4.1
>>> reported_result("U33G A40C C116A")
-3.88
>>> reported_result("C72G C108U A137C")
"≤ -4.2"
>>> reported_result("C5U U55A")
0.322
>>> reported_result("A52C C54U G68A C93U C103A A106G A110U")
"≤ -4.2"

Each recorded value in this set is attributed to the RNAGym collection of RNA variant scans (doi:10.1073/pnas.2313332121).
